tested on: larvae of the mustard beetle (Phaedon cochleariae); test: Phaedon cochleariae spray test (PHAECO); format: in vivo; details: 100 g/ha, after 7 days
Measure Name: efficacy (%)
Note: unit % is implicit; provide only the numeric part.

Value of efficacy reported for the compound Cn1c(C(=O)NC(c2cc(Cl)c(Cl)c(Cl)c2)C(F)(F)F)cc2cc(C(=O)NC3(C(N)=S)CC3)c(Cl)cc21 (stereo not shown) [I-20] is 100

Value of efficacy reported for the compound CCn1c(C(=O)NC(c2cc(F)cc(C(F)(F)F)c2)C(F)(F)F)cc2cc(C(=O)NC3(C(N)=S)CC3)c(Cl)cc21 (stereo not shown) [I-10] is 100

Value of efficacy reported for the compound C#CCn1c(C(=O)NC(c2cc(Cl)c(Cl)c(Cl)c2)C(F)(F)F)cc2cc(C(=O)NC3(C(N)=S)CC3)c(Cl)cc21 (stereo not shown) [I-21] is 100

Value of efficacy reported for the compound Cn1c(C(=O)NC(c2cc(Cl)c(F)c(Cl)c2F)C(F)(F)F)cc2cc(C(=O)NC3(C(N)=S)CC3)c(Cl)cc21 (stereo not shown) [I-08] is 100

Value of efficacy reported for the compound Cn1c(C(=O)NC(c2ccc(Cl)c(C(F)(F)F)c2)C(F)(F)F)cc2cc(C(=O)NC3(C(N)=S)CC3)c(Cl)cc21 (stereo not shown) [I-16] is 100

Value of efficacy reported for the compound C#CCn1c(C(=O)NC(c2cc(Cl)c(F)c(Cl)c2)C(F)(F)F)cc2cc(C(=O)NC3(C(N)=S)CC3)c(Cl)cc21 (stereo not shown) [I-14] is 100

Value of efficacy reported for the compound CCn1c(C(=O)NC(c2cc(Cl)cc(C(F)(F)F)c2)C(F)(F)F)cc2cc(C(=O)NC3(C(N)=S)CC3)c(Cl)cc21 (stereo not shown) [I-22] is 100

* * *

For each of the molecules below, state its efficacy.
test system: larvae of the mustard beetle (Phaedon cochleariae); test: Phaedon cochleariae spray test (PHAECO); format: in vivo; conditions: 100 g/ha, after 7 days
Number first, unit second.

Summary: CCn1c(C(=O)NC(c2ccc(F)c(C(F)(F)F)c2)C(F)F)cc2cc(C(=O)NC3(C(N)=S)CC3)c(Cl)cc21 (stereo not drawn) , larvae of the mustard beetle (Phaedon cochleariae), efficacy = 100%

Summary: CCn1c(C(=O)NC(c2cc(Cl)c(F)c(Cl)c2F)C(F)(F)F)cc2cc(C(=O)NC3(C(N)=S)CC3)c(Cl)cc21 (single isomer, unassigned) [I-18] , larvae of the mustard beetle (Phaedon cochleariae), efficacy = 100%

Summary: C#CCn1c(C(=O)NC(c2ccc(Cl)c(C(F)(F)F)c2)C(F)(F)F)cc2cc(C(=O)NC3(C(N)=S)CC3)c(Cl)cc21 (stereo not drawn) , larvae of the mustard beetle (Phaedon cochleariae), efficacy = 100%

* * *

experiment: log P by HPLC (EEC directive 79/831 Annex V.A8); assay type: physicochemical; settings: HPLC, reversed-phase column (C18), 43° C., acidic range pH 2.7
Measure Name: log P
Number only, no unit.

Value of log P reported for the molecule CCn1c(C(=O)NC(c2cc(F)cc(F)c2)C(F)F)cc2cc(C(=O)NC3(C(N)=S)CC3)c(Cl)cc21 (centres unmarked) is 3.07

Value of log P reported for the molecule Cn1c(C(=O)NC(c2cc(Cl)c(F)c(Cl)c2)C(F)(F)F)cc2cc(C(=O)NC3(C(N)=S)CC3)c(Cl)cc21 (centres unmarked) is 3.76

Value of log P reported for the molecule CCn1c(C(=O)NC(c2ccc(F)c(Cl)c2)C(F)(F)F)cc2cc(C(=O)NC3(C(N)=S)CC3)c(Cl)cc21 (centres unmarked) is 3.57

Value of log P reported for the molecule CCn1c(C(=O)NC(c2cc(Cl)cc(Cl)c2)C(F)F)cc2cc(C(=O)NC3(C(N)=S)CC3)c(Cl)cc21 (centres unmarked) is 3.65

Value of log P reported for the molecule CCn1c(C(=O)NC(c2ccc(Cl)c(Cl)c2)C(F)F)cc2cc(C(=O)NC3(C(N)=S)CC3)c(Cl)cc21 (centres unmarked) is 3.54

Value of log P reported for the molecule CCn1c(C(=O)NC(c2ccc(F)c(Br)c2)C(F)(F)F)cc2cc(C(=O)NC3(C(N)=S)CC3)c(Cl)cc21 (centres unmarked) is 3.64

Value of log P reported for the molecule C#CCn1c(C(=O)NC(c2cc(Cl)c(F)c(Cl)c2F)C(F)(F)F)cc2cc(C(=O)NC3(C(N)=S)CC3)c(Cl)cc21 (centres unmarked) is 3.94

Value of log P reported for the molecule CCn1c(C(=O)NC(c2cc(Cl)c(F)c(Cl)c2)C(F)(F)F)cc2cc(C(=O)NC3(C(N)=S)CC3)c(Cl)cc21 (centres unmarked) is 4.04

Value of log P reported for the molecule CCn1c(C(=O)NC(c2cc(F)cc(C(F)(F)F)c2)C(F)(F)F)cc2cc(C(=O)NC3(C(N)=S)CC3)c(Cl)cc21 (centres unmarked) is 3.81

Value of log P reported for the molecule C#CCn1c(C(=O)NC(c2ccc(Cl)c(C(F)(F)F)c2)C(F)(F)F)cc2cc(C(=O)NC3(C(N)=S)CC3)c(Cl)cc21 (centres unmarked) is 3.73

Value of log P reported for the molecule CCn1c(C(=O)NC(c2cc(F)c(Cl)c(Cl)c2)C(F)(F)F)cc2cc(C(=O)NC3(C(N)=S)CC3)c(Cl)cc21 (centres unmarked) is 4.02

Value of log P reported for the molecule CCn1c(C(=O)NC(c2ccc(F)c(C(F)(F)F)c2)C(F)(F)F)nc2cc(C(=O)NC3(C(N)=S)CC3)c(Cl)cc21 (centres unmarked) is 3.46

* * *

system: caterpillars of the armyworm (Spodoptera frugiperda); experiment: Spodoptera frugiperda spray test (SPODFR); assay type: in vivo; details: SPODFR, 0.8 g/ha, 7 dat
For each of the molecules below, state its % efficacy.
Note: unit % is implicit; provide only the numeric part.

Value of % efficacy reported for the molecule Cn1c(C(=O)NC(c2cc(Cl)c(F)c(Cl)c2)C(F)(F)F)cc2cc(C(=O)NC3(C(N)=S)CC3)c(Cl)cc21 (stereo not shown) is 83

Value of % efficacy reported for the molecule C#CCn1c(C(=O)NC(c2cc(Cl)c(Cl)c(Cl)c2)C(F)(F)F)cc2cc(C(=O)NC3(C(N)=S)CC3)c(Cl)cc21 (stereo not shown) is 100

Value of % efficacy reported for the molecule CCn1c(C(=O)NC(c2ccc(F)c(Br)c2)C(F)(F)F)cc2cc(C(=O)NC3(C(N)=S)CC3)c(Cl)cc21 (stereo not shown) is 100

Value of % efficacy reported for the molecule CCn1c(C(=O)NC(c2cc(Cl)cc(C(F)(F)F)c2)C(F)(F)F)cc2cc(C(=O)NC3(C(N)=S)CC3)c(Cl)cc21 (stereo not shown) is 100

* * *

test: log P by HPLC (EEC directive 79/831 Annex V.A8); assay type: physicochemical; details: HPLC, reversed-phase column (C18), 43° C., acidic range pH 2.7
Measure Name: log P
Number only, no unit.

Value of log P reported for the compound CCn1c(C(=O)NC(c2cc(Cl)c(F)c(Cl)c2F)C(F)F)cc2cc(C(=O)NC3(C(N)=S)CC3)c(Cl)cc21 (stereo not shown) is 3.90

Value of log P reported for the compound CCn1c(C(=O)NC(c2ccc(Cl)c(C(F)(F)F)c2)C(F)(F)F)cc2cc(C(=O)NC3(C(N)=S)CC3)c(Cl)cc21 (stereo not shown) is 3.96

Value of log P reported for the compound CCn1c(C(=O)NC(c2cc(Cl)c(F)c(F)c2F)C(F)(F)F)cc2cc(C(=O)NC3(C(N)=S)CC3)c(Cl)cc21 (stereo not shown) is 3.99

Value of log P reported for the compound CCn1c(C(=O)NC(c2cc(Cl)cc(C(F)(F)F)c2)C(F)(F)F)cc2cc(C(=O)NC3(C(N)=S)CC3)c(Cl)cc21 (stereo not shown) is 4.11

Value of log P reported for the compound C#CCn1c(C(=O)NC(c2cc(Cl)c(Cl)c(Cl)c2)C(F)(F)F)cc2cc(C(=O)NC3(C(N)=S)CC3)c(Cl)cc21 (stereo not shown) is 4.09

Value of log P reported for the compound Cn1c(C(=O)NC(c2cc(Cl)c(F)c(Cl)c2F)C(F)(F)F)cc2cc(C(=O)NC3(C(N)=S)CC3)c(Cl)cc21 (stereo not shown) is 3.94

Value of log P reported for the compound Cn1c(C(=O)NC(c2cc(Cl)c(Cl)c(Cl)c2)C(F)(F)F)cc2cc(C(=O)NC3(C(N)=S)CC3)c(Cl)cc21 (stereo not shown) is 4.07
